- System: P. aeruginosa
- Assay overview: MIC, broth microdilution, CDC/FDA Antibiotic Resistance Isolate Bank (Example 7, Tables 10, 15)
- Type: cell-based
- Conditions: Pseudomonas aeruginosa, P. aeruginosa KUB No. 5799, AR Bank # 456; read-out: MIC
Recorded MIC values for a group of molecules are listed next.
Output spec: scalar in µg/mL, unitless text.

Recorded MIC, per entry:
CN(C)c1cc(NC(=O)CNC(C)(C)C)c(O)c2c1C[C@H]1C[C@H]3[C@H](N(C)C)C(O)=C(C(N)=O)C(=O)[C@@]3(O)C(O)=C1C2=O [Tigecycline, tigecycline] ... 8
CC(C)(O/N=C(\C(=O)N[C@@H]1C(=O)N2C(C(=O)[O-])=C(C[N+]3(CCNC(=O)c4ccc(O)c(O)c4Cl)CCCC3)CS[C@H]12)c1csc(N)n1)C(=O)O [Cefiderocol, cefiderocol] ... 0.25
CO/N=C(\C(=O)N[C@@H]1C(=O)N2C(C(=O)[O-])=C(C[n+]3ccn4ncccc43)CS[C@H]12)c1nsc(N)n1 [Cefozopran, cefozopran] ... 32

Q: Consider the molecule shown here: NCC[C@H](O)C(=O)N[C@@H]1C[C@H](N)[C@@H](O[C@H]2O[C@H](CN)[C@@H](O)[C@H](O)[C@H]2O)[C@H](O)[C@H]1O[C@H]1O[C@H](CO)[C@@H](O)[C@H](N)[C@H]1O [Amikacin, amikacin] What is its recorded MIC?
A: 8

----------
- Tested on: Enterobacterales
- Assay overview: MIC, broth microdilution, CDC/FDA Antibiotic Resistance Isolate Bank (Example 7, Tables 8, 11, 12)
- Format: cell-based
- Conditions: Klebsiella pneumoniae, KUB No. 5655, AR Bank # 158; read-out: MIC
Value kind: MIC (µg/mL)
Write down the numeric answer in µg/mL and omit the unit.

Study these solved cases before continuing.
CC(C)(O/N=C(\C(=O)N[C@@H]1C(=O)N2C(C(=O)[O-])=C(C[N+]3(CCNC(=O)c4ccc(O)c(O)c4Cl)CCCC3)CS[C@H]12)c1csc(N)n1)C(=O)O ... 0.5
C[C@H]1COc2c(N3CCN(C)CC3)c(F)cc3c(=O)c(C(=O)O)cn1c23 ... 16

Would you kindly look at the next entry?
Q: Can you share its MIC? I mean this compound: `NCC[C@H](O)C(=O)N[C@@H]1C[C@H](N)[C@@H](O[C@H]2O[C@H](CN)[C@@H](O)[C@H](O)[C@H]2O)[C@H](O)[C@H]1O[C@H]1O[C@H](CO)[C@@H](O)[C@H](N)[C@H]1O`
A: 2

----------
- Tested on: P. aeruginosa
- Assay overview: MIC, broth microdilution, CDC/FDA Antibiotic Resistance Isolate Bank (Example 7, Tables 10, 15)
- Assay type: cell-based
- Conditions: Pseudomonas aeruginosa, P. aeruginosa KUB No. 5750, AR Bank # 354; read-out: MIC
Value kind: MIC (µg/mL)
I only need the number, in µg/mL, no unit after it.

C[C@H]1COc2c(N3CCN(C)CC3)c(F)cc3c(=O)c(C(=O)O)cn1c23 [Levofloxacin, levofloxacin] ... 8

Q: Name the recorded MIC for NCC[C@H](O)C(=O)N[C@@H]1C[C@H](N)[C@@H](O[C@H]2O[C@H](CN)[C@@H](O)[C@H](O)[C@H]2O)[C@H](O)[C@H]1O[C@H]1O[C@H](CO)[C@@H](O)[C@H](N)[C@H]1O [Amikacin, amikacin] .
A: 8

Q: Tell me the measured MIC of C[C@H]1[C@H](NC(=O)/C(=N\OC(C)(C)C(=O)O)c2csc(N)n2)C(=O)N1S(=O)(=O)O [Aztreonam, aztreonam] , please.
A: 16

Q: Give its MIC value. Item: CC(C)(O/N=C(\C(=O)N[C@@H]1C(=O)N2C(C(=O)[O-])=C(C[N+]3(CCNC(=O)c4ccc(O)c(O)c4Cl)CCCC3)CS[C@H]12)c1csc(N)n1)C(=O)O [Cefiderocol, cefiderocol]
A: 0.5

Q: Would you mind telling me what MIC value was observed for CN(C)c1cc(NC(=O)CNC(C)(C)C)c(O)c2c1C[C@H]1C[C@H]3[C@H](N(C)C)C(O)=C(C(N)=O)C(=O)[C@@]3(O)C(O)=C1C2=O [Tigecycline, tigecycline] ?
A: 4

Q: # input molecule: CO/N=C(\C(=O)N[C@@H]1C(=O)N2C(C(=O)[O-])=C(C[n+]3ccn4ncccc43)CS[C@H]12)c1nsc(N)n1 [Cefozopran, cefozopran] ; wanted: its MIC
A: 8

Q: Which MIC is listed for O=C(O)c1cn(C2CC2)c2cc(N3CCNCC3)c(F)cc2c1=O [Ciprofloxacin, ciprofloxacin] ?
A: 4
